target: GDP-bound KRAS wild-type protein (Homo sapiens); assay: Binding to KRAS by surface plasmon resonance (SPR), Single Cycle Kinetics; conditions: SPR Single Cycle Kinetics, GDP-bound KRAS wild-type protein, 1:1 binding model; read-out: KRAS KD
Sequence (P01116 whole entry): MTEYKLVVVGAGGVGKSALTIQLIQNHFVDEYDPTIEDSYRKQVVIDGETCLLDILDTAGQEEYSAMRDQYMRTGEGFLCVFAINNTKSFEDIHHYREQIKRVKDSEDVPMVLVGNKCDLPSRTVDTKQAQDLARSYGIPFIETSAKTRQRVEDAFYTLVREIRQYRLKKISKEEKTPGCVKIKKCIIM
*1 amine or outer side, *2 acyl side, *3 side chain or, on linkers, in order; H or OH if unused. Where a SMILES comes first, the peptide text is derived from it. Bridges are numbered along the chain shown (N, C = ends). [ ]: non-standard residue; d: D form. The star is where a group is joined. hPhe(3-Cl-4-CF3) = N[C@@H](CCc1ccc(C(F)(F)F)c(Cl)c1)C(=O)O; NPrPhe(4-CF3) = CCCN[C@@H](Cc1ccc(C(F)(F)F)cc1)C(=O)O; X21 = Cc1ccc(C[C@@H](C(=O)[*:2])N(CC2CC2)[*:1])cc1; NMeGly(cPent) = CN[C@H](C(=O)O)C1CCCC1; Pro(4,4-F2) = O=C(O)[C@@H]1CC(F)(F)CN1; NMeD = CN[C@@H](CC(=O)O)C(=O)O; NMeL = CN[C@@H](CC(C)C)C(=O)O; Morpholide = C1CN(*)CCO1; NMeA = CN[C@@H](C)C(=O)O; Ac5c = NC1(C(=O)O)CCCC1; Aze = O=C(O)[C@@H]1CCN1; Ac4c = NC1(C(=O)O)CCC1; Sar = CNCC(=O)O
METRIC NAME: pKd
Note: pKd values are expressed as the negative base-10 logarithm of concentration in M.

compound="CCCN1C(=O)CN(C)C(=O)CNC(=O)[C@H]([C@@H](C)CC)NC(=O)[C@H](CC(C)C)N(C)C(=O)C[C@@H](C(=O)N(C)C)NC(=O)[C@H](C2CCCC2)N(C)C(=O)C2(CCC2)NC(=O)[C@@H]2CC(F)(F)CN2C(=O)[C@H](CCc2ccc(C(F)(F)F)c(Cl)c2)NC(=O)CN(C)C(=O)[C@@H]1Cc1ccc(C(F)(F)F)cc1 [PP0364] ([NMeL]IG[Sar][NPrPhe(4-CF3)][Sar][hPhe(3-Cl-4-CF3)][Pro(4,4-F2)][Ac4c][NMeGly(cPent)]D-NMe2; lactam N-11)" test_result=9.11
compound=CCOC[C@H]1C(=O)N[C@@H]([C@@H](C)CC)C(=O)N(C2CC2)CC(=O)N(C)[C@H]2C/C=C\CCN(C2=O)[C@@H](Cc2ccc(C)cc2)C(=O)N(C)CC(=O)N[C@@H](CCc2ccc(Cl)c(Cl)c2)C(=O)N2C[C@H](OCC)C[C@H]2C(=O)NC2(CC(C)(C)C2)C(=O)N(C)[C@@H](CC(C)(C)C)C(=O)N(C)[C@H](C(=O)N(C)C)CC(=O)N1C test_result=8.96

Field: next compound
Ask | // returns reported pKd for input CC[C@H](C)[C@@H]1NC(=O)[C@H](CC(C)C)N(C)C(=O)C[C@@H](C(=O)N2CCOCC2)N(C)C(=O)[C@H](C2CCCC2)N(C)C(=O)C2(CCCC2)NC(=O)[C@@H]2CCCN2C(=O)[C@H](CCc2ccc(C(F)(F)F)c(Cl)c2)NC(=O)CN(C)C(=O)[C@H](Cc2ccc(C)cc2)N(CC2CC2)C(=O)[C@@H]2CCN2C(=O)[C@H](C)N(C)C1=O [PP0057] ([NMeL]I[NMeA][Aze][X21][Sar][hPhe(3-Cl-4-CF3)]P[Ac5c][NMeGly(cPent)][NMeD]-Morpholide; lactam N-11)
Reply | 9.68
